We begin with a simple list: items and their reported Ki.
- TESTED_SYSTEM: PKC delta kinase (Homo sapiens)
- ASSAY_EXPLANATION: PKC delta kinase inhibition, coupled-enzyme (NADH absorbance) assay, Ki
- Format: biochemical
- RUN_PARAMETERS: 150 μM ATP, 46 nM PKC delta kinase, 30° C.; read-out: Ki PKC delta

Item under review: CC(C)(F)C(C)(O)C1CN(c2ccc(F)c(-c3n[nH]c4ncccc34)n2)CCN1 (stereo not shown) [Compound 249] . Reported Ki? > 1250 nM

Next:
Given the molecule CC(C)C[C@@H]1CN(c2cccc(-c3n[nH]c4ncccc34)n2)CC[C@@H]1N , what is its reported Ki? < 50 nM

Lookup OC1CCCN(c2ccc(C(F)(F)F)c(-c3n[nH]c4ncccc34)n2)C1 (stereo not shown) > 1250 nM

// repeat for CC(=O)N1CCN(c2ccc(F)c(-c3n[nH]c4ncccc34)n2)CC1C(C)(O)C(C)C (stereo not shown) and report > 1250 nM

====

- TESTED_SYSTEM: PKC delta kinase (Homo sapiens, UniProt Q05655)
- Sequence (Q05655 whole entry): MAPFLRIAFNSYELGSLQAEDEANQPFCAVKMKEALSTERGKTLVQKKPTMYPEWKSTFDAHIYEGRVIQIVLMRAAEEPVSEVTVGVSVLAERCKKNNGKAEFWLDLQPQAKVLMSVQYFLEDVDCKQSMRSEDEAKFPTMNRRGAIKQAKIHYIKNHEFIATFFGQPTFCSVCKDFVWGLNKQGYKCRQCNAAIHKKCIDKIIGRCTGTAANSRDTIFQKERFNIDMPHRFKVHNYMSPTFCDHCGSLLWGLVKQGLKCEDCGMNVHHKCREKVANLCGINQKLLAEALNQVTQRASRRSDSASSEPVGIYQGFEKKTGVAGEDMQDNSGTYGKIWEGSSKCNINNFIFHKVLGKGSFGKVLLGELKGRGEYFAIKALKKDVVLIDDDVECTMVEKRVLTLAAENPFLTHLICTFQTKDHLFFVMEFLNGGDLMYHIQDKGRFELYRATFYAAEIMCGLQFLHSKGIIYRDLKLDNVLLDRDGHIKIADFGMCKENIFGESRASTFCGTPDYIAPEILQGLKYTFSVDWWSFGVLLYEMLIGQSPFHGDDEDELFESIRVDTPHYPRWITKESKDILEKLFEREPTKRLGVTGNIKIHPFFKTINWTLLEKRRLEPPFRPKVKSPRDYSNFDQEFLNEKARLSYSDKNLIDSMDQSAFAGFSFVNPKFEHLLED
- ASSAY_EXPLANATION: PKC delta kinase inhibition, coupled-enzyme (NADH absorbance) assay, Ki
- Type: biochemical
- RUN_PARAMETERS: 150 μM ATP, 46 nM PKC delta kinase, 30° C.; read-out: Ki PKC delta
# Ki values compiled below

The examples below pair each entry with its known result.
What value of measured Ki is listed for C=Cc1ccc(N2CCNCC2)nc1-c1n[nH]c2ncccc12 [Compound 52] ? < 2800 nM

Input N#CC1CCN(c2ccc(F)c(-c3n[nH]c4ncccc34)n2)CC1 [Compound 275] > 1250 nM

Proceed to NCC1CCCN(c2ccc(C(F)(F)F)c(-c3n[nH]c4ncccc34)n2)C1 (centres unmarked) [Compound 128] > 1250 nM

Entry CC(C)(F)C(C)(O)C1CN(c2ccc(F)c(-c3n[nH]c4ncccc34)n2)CCN1 (centres unmarked) [Compound 248] please < 500 nM

Okay, now this compound:
What Ki value was documented for this compound, OC1(C2CN(c3ccc(F)c(-c4n[nH]c5ncccc45)n3)CCN2)COC1 (centres unmarked) [Compound 230] ? > 1250 nM

====

pKi: −log10 of the molar value.
Entries with reported pKi on PKC theta kinase (Homo sapiens)
Sequence (Q04759 whole entry): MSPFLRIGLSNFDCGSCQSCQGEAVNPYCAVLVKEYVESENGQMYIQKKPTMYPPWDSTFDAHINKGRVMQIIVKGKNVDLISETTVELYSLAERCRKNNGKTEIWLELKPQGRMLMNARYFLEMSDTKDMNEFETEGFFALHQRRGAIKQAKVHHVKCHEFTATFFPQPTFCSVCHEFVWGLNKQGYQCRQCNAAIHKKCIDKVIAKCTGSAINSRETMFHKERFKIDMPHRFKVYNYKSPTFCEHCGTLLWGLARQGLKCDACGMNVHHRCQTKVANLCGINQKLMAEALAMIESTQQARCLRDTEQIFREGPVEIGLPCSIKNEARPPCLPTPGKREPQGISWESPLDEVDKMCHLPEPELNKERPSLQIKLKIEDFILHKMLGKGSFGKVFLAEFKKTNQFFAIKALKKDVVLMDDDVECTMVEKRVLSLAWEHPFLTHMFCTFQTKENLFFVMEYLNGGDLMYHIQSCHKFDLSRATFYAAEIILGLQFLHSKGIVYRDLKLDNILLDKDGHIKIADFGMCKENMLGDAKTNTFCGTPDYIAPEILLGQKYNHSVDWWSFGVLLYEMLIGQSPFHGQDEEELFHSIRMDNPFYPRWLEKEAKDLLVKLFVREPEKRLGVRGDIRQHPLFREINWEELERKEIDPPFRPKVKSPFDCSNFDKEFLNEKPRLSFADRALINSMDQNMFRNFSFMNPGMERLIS

Using the record for Cc1cc([C@@H]2CN(c3ccc(F)c(-c4n[nH]c5ncccc45)n3)CCN2)[nH]n1 , report its pKi. > 6.30

Please do the same for CC(C)CC1CN(c2ccc(C(F)(F)F)c(-c3n[nH]c4ncccc34)n2)CCC1C#N (stereo not shown) as well. > 6.30

Quick one: CNC(C1CCCN(c2ccc(F)c(-c3n[nH]c4ncccc34)n2)C1)C(C)(C)C (stereo not shown) > 7.30

Next:
Which measured pKi value corresponds to CCC(C)(O)C1CN(c2ccc(F)c(-c3n[nH]c4ncccc34)n2)CCN1 (stereo not shown) [Compound 243] ? > 6.30

====

Documented Ki across a set of compounds
- TESTED_SYSTEM: UniProtKB Q04759
- ASSAY_EXPLANATION: PKC theta kinase inhibition, coupled-enzyme (NADH absorbance) assay, Ki
- Type: biochemical
- RUN_PARAMETERS: 240 μM ATP, 18 nM PKC theta kinase, 30° C.

Sample records with Ki:
Quick check: Ki on UniProtKB Q04759, item Cc1cc(C)c(CC2CN(c3cccc(-c4n[nH]c5ncccc45)n3)CCN2)c(C)c1 (centres unmarked) [Compound 69] ? > 700 nM

Another compound to check: c1ccc(C[C@H]2CN(c3cccc(-c4n[nH]c5ncccc45)n3)CCN2)cc1 [Compound 37] < 50 nM

Cool, now N#CC1(c2cccc(-c3n[nH]c4ncccc34)n2)CCNCC1 [Compound 234] < 50 nM

Another compound to check: CN(C)CC1CCCN(c2ccc(F)c(-c3n[nH]c4ncccc34)n2)C1 (centres unmarked) [Compound 305] > 700 nM

Now consider a different compound.
API: value(readout=Ki, system=UniProtKB Q04759) for record NCC1CCN(c2ccc(F)c(-c3n[nH]c4ncccc34)n2)C1 (centres unmarked) [Compound 289] < 500 nM
